- Measured On: recombinant human ATX (Homo sapiens)
- Method: Choline detection assay for ATX
- Assay type: biochemical
- Experimental Conditions: table of g1-g15 (β-keto phosphonates); 1 μM test compound; activity without test compound = 100%
Please go through the items and note down their ATX activity (%) 1 μM.
Number plus unit, in that order.

So the reported ATX activity (%) 1 μM for CCCCCCCCCCCCCCCC(=O)N[C@H](Cc1ccc(OCCC)cc1)C(=O)CP(=O)(O)O , on recombinant human ATX (Homo sapiens), turned out to be 104%

Item CCCCCCCCCCCCCCCC(=O)N[C@@H](Cc1ccc(OCCCCC)cc1)C(=O)CP(=O)(O)O ; assay system recombinant human ATX (Homo sapiens); ATX activity (%) 1 μM reported as 95%

Summary: CCCCCCCCCCCCCCCC(=O)N[C@H](Cc1ccc(OC)cc1)C(=O)CP(=O)(O)O , recombinant human ATX (Homo sapiens), ATX activity (%) 1 μM = 84%

Record CCCCCCCCCCCCCCCC(=O)N[C@@H](Cc1ccc(OC)cc1)C(=O)CP(=O)(O)O / recombinant human ATX (Homo sapiens), ATX activity (%) 1 μM recorded as 96%

// compound CCCCCCCCCCCCCCCC(=O)N[C@@H](Cc1ccc(OCc2ncc(C)c(OC)c2C)cc1)C(=O)CP(=O)(O)O , assay recombinant human ATX (Homo sapiens), ATX activity (%) 1 μM value: 71%

The compound CCCCCCCCCCCCCCCC(=O)N[C@H](Cc1ccc(OCCCCC)cc1)C(=O)CP(=O)(O)O , tested on recombinant human ATX (Homo sapiens), showed ATX activity (%) 1 μM of 93%

---

- Measured On: recombinant human ATX (Homo sapiens)
- Method: Choline detection assay for ATX
- Type: biochemical
- Experimental Conditions: Table 1 (f1-f34); 10 μM test compound as printed; activity without test compound = 100%
Note to self: use criterion met only for ATX activity (%) 10 Mm readings below 80%; a reading exactly at 80% still gets criterion not met.

stdin: I'd appreciate it if you could check whether CCCCCCCCCCCCCCCC(=O)N[C@@H](Cc1ccc(OCCC)cc1)C(O)CP(=O)(O)O (single isomer, unassigned) [f26] has ATX activity (%) 10 Mm smaller than 80%.
stdout: criterion not met

stdin: # strict comparison: is reported ATX activity (%) 10 Mm < 80%? input = CCCCCCCCCCCCCCCC(=O)N[C@@H](Cc1ccc(OCCC)cc1)C(O)CP(=O)(O)O (single isomer, unassigned) [f25]
stdout: criterion not met

stdin: Could you please tell me whether ATX activity (%) 10 Mm recorded for CCCCCCCCCCCCCCCC(=O)N[C@@H](Cc1ccc(OCCCCC)cc1)C(O)CP(=O)(O)O (single isomer, unassigned) [f30] is less than 80%?
stdout: criterion not met

stdin: Quick check: ATX activity (%) 10 Mm of CCCCCCCCCCCCCCCC(=O)N[C@H](Cc1ccc(OCc2ncc(C)c(OC)c2C)cc1)C(O)CP(=O)(O)O (single isomer, unassigned) [f15] under 80%?
stdout: criterion not met

stdin: In the record for CCCCCCCCCCCCCCCC(=O)N[C@@H](Cc1ccc(OCc2ccccc2)cc1)C(O)CP(=O)(O)O (single isomer, unassigned) [f7] , is ATX activity (%) 10 Mm less than 80%?
stdout: criterion met

stdin: Does the reported ATX activity (%) 10 Mm of CCCCCCCCCCCCCCCC(=O)N[C@@H](Cc1ccc(OCCCCC)cc1)C(O)CP(=O)(O)O (single isomer, unassigned) [f29] stay below 80%?
stdout: criterion not met

stdin: ATX activity (%) 10 Mm strictly < 80% for this compound? CCCCCCCCCCCCCCCC(=O)N[C@@H](Cc1ccc(OC)cc1)C(O)CP(=O)(O)O (single isomer, unassigned) [f21]
stdout: criterion met

Source listed as patent US8378100B2.
